# System: MALME-3M melanoma
# testMethodNotes: NCI-60 one-dose screen, 48 h
# measurementParameters: 10 µM unless noted
About 83,000 compounds went through this panel and 20% of them were active in at least one assay; those are over-represented in the sample as a whole. Activity calls are given as the source filed them. The calls were made as follows: active = growth percent below 10; inactive = the rest.
Give your call using only these classes: YES = active, NO = inactive

Just curious, what result did O=C(Nc1ccccc1)c1sc(-c2ccccc2)cc1O get here? NO

Give the logged outcome of this assay for the following compound: O=C(NCc1ccc2c(c1)OCO2)NCC1CCCC(CNC(=O)NCc2ccc3c(c2)OCO3)C1 (stereo not given) NO

How did this test come out for COC(=O)C1=C(C(=O)Nc2cccnc2)C2OC1(C(Cc1ccccc1)Oc1ccccc1)C1OC21 (stereo not given) ? YES

Outcome logged for O=c1[nH]cnc2c1C(c1ccc(Br)cc1)c1sc3c(F)cccc3c1O2 (stereo not given) in this assay: NO

Call for entry CCCCCCCCn1ccc2cc(NC(=O)Cn3cc(CN4CCOCC4)nn3)ccc21 : NO

GET /call?item= CCOC(=O)c1c(NC(=O)CSc2n[nH]c3nc4ccccc4n23)sc(CC)c1C returns the recorded outcome of this test. NO

What classification did CCOC(=O)/C=C/c1c(C)[nH]c(=O)[nH]c1=O end up with in this test? NO

Field: outcome | Entry: CC(C)(C)c1cc(C=Nc2cccc(C(F)(F)F)c2)c(O)c(C(C)(C)C)c1 NO

Test call, this compound: COc1ccc2c(c1)c(-c1nonc1-c1cn(C)c3ccc(OC)cc13)cn2C NO

// param item: CCOC(=O)c1c2c(n3c1NCC3)-c1ccccc1C2=O ; yields the recorded call NO

---

Consider the following compounds; for each one, report its growth.
# Tested on: BT-549 breast
# testMethodNotes: NCI-60 one-dose screen, 48 h (100 = growth as untreated, 0 = no growth, -100 = all killed)
# measurementParameters: 10 µM unless noted
# Experimental: Growth inhibition of the BT-549 human tumor cell line is measured as a screen for anti-cancer activity. Cells are grown in 96 well plates and exposed to the test compound for 48 hours. Compounds are tested at a single concentration, which is 10^-5 M for most compounds. The reported endpoint is percent growth (GI% or GIPRCNT), where numbers from 0 - 100% represent growth inhibition, and numbers from -100% - 0 represent cell death. For example, a value of 40 represents 60% growth inhibition. […]
Compounds without any hit were thinned out: in the full panel of roughly 83,000, 20% have a hit. Calls of active or inactive are those of the source. Rule for the calls: active = growth percent below 10; inactive = the rest.

growth reading for S=c1[nH]c2cc(Cl)ccc2o1 : 99.8% (inactive)

growth in this record for CN(C)c1ccc(/C=C/C(=O)c2ccc(Nc3nc(Nc4ccc(F)cc4)nc(Nc4ccc(Cl)cc4)n3)cc2)cc1 : 75.7% (inactive)

Reported growth ( COc1cc(C2C3=C(COC3=O)N(CCO)c3cc4c(cc32)OCCO4)cc(OC)c1OC (stereo not given) ) = -4.33% (active)

Entry CCN1C(=O)N(CC)C2C1NN=c1s/c(=C3\C(=O)N(CCc4ccccc4)c4ccccc43)c(=O)n12 (stereo not given) , growth reported as 14.2% (inactive)

Field growth (entry C(/C=C/c1ccccc1)=Nc1ccc(CCc2ccc(N=C/C=C/c3ccccc3)cc2)cc1 ) reads 91.9% (inactive)

Entry COc1cc(Nc2c3ccc(Cl)cc3nc3ccc(OC)cc23)c2ncccc2c1 , growth reported as 56.2% (inactive)

Notebook: CCOC(=O)c1c2c(n3c1NCC3)-c1ccccc1C2=O , growth read as 86.9% (inactive)

Input CC(=O)N(Cc1ccccc1)c1nc2ccc(O)c(CN(C)C)c2s1 . Output growth: 96.6% (inactive)

Please fill in: growth reported for COc1cccc(/C=C2\COc3ccc(O)cc3C2=O)c1 = 78% (inactive)

// field: growth; key: Cc1ccc(-c2nc(C#N)c(S(=O)(=O)NCCO)o2)cc1 ; value = 64.7% (inactive)

Record Cc1c(Cl)cccc1C(=O)Nc1nc2c(s1)CN(C(=O)Nc1cccc(C(F)(F)F)c1)CC2 , field growth: 33.6% (inactive)

The value of growth measured for the compound COc1ccc(-c2ccc(-c3ccc(C(=N)N)cn3)s2)cc1 turned out to be 88.1% (inactive)

response.value for CCn1cc(C(=O)NN=C2CCCCCC2)c(=O)c2ccc(C)nc21 (field: growth) = 83% (inactive)

Measured growth of COc1cc2c(c(OC)c1OC)C(=O)N[C@@H]1[C@@H](O)[C@@H](O)[C@H](O)C[C@@H]21 : 110% (inactive)

compound COc1cc2oc(-c3cccc(NC(=O)c4ccc5c(c4)OCO5)c3)cc(=O)c2c(OC)c1OC , growth observed: 41.4% (inactive)

For this compound ( Cc1cc2nc(-c3c(-c4ccc(F)cc4)nc4sccn34)[nH]c2cc1C ), measured growth is 109% (inactive)

Sample C=C1C(=O)O[C@H]2[C@H]1CC/C(CNC(=O)c1cc3ccccc3[nH]1)=C\CC[C@@]1(C)O[C@@H]21 ; growth observed: -79.8% (active)

Noted for CN(C)c1ccc(-c2cc(-c3ccc(Nc4nc(Nc5ccc(Cl)cc5)nc(Nc5ccc(Cl)cc5)n4)cc3)nc(N)c2C#N)cc1 : its growth reads 95.6% (inactive)

For Nc1c(C(=O)Nc2cccc3ncccc23)sc2nc3c(cc12)C(=O)CCC3 the compound record lists growth as 55.2% (inactive)

Documented growth of O=C1N[C@@H]2[C@@H](O)[C@@H](O)[C@H](O)C[C@H]2c2cc3c(c(O)c21)OCCO3 : -17.5% (active)
